Biological target: ERK2 (Homo sapiens, UniProt P28482)
Construct: purchased Jubilant Biosys
Sequence (P28482 whole entry): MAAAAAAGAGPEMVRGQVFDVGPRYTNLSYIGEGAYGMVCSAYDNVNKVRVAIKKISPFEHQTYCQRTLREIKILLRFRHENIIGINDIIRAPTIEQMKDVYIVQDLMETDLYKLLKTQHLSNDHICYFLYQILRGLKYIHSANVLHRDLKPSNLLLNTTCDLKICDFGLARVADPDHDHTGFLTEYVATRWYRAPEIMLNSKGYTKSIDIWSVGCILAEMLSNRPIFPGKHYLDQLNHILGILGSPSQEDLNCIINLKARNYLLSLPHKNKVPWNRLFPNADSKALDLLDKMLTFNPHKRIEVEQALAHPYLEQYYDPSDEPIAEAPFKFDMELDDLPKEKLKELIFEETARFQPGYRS
Assay: ERK2 HTRF (biochemical) assay
Settings: HTRF
From the text: ERK1 and ERK2 HTRF (Biochemical) Assays These assays employed a homogeneous time resolved fluorescence (HTRF) technique. […] Plate was read using Pherastar in HTRF mode (excitation 337 nm, emission 665 & 620 nm). The IC50 values (half maximal inhibitory concentration values) were subsequently determined using a sigmoidal dose-response curve (variable slope) in GraphPad Prism® 5 software.
RECORDED METRIC: IC50

1. Cc1cnc(N[C@H]2CCOC2)nc1-n1cnc(C(=O)NCc2cccc(Cl)c2F)c1 [Example 315]
≤ 50 nM
2. Cc1cnc(N[C@H]2CCOC2)nc1-n1cnc(C(=O)NCc2cccc(C(C)(C)C)c2)c1 [Example 327]
≤ 50 nM
3. Cc1cnc(N[C@H]2CCOC2)nc1-n1cnc(C(=O)NCc2ccc(C(F)(F)F)c(F)c2)c1 [Example 321]
≤ 50 nM

These data points were gathered from patent US11925629B2.
